test: antimalarial activity against Dd2 strain (AID 2302);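 further: 0% = DMSO untreated growth and 100% = chloroquine plus artemisinin killed control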; settings: P. falciparum Dd2 in RBCs, LDH growth readout, 72 h; at 2 µM; stronger effect = higher value
// growth inhibition lookup, one value per entry
Write the number in % without appending the unit.

Check out these entries, answers already filled in.
Cc1cccc(/C=C/C(=O)NC2CCC(N3CCC(c4ccccc4C)CC3)CC2)c1 (configuration not stated)
20
COc1ccc2nccc([C@@H](O)CN3CCC(NCCOc4ccncc4)CC3)c2c1
-1
CCc1ccc(CN(CCCOc2cccc(CC(=O)NCc3cnc[nH]3)c2)Cc2ccc(-n3ccnc3)cc2)cc1
28
Cc1cc(N(C)C)nc(Nc2ccc(NS(=O)(=O)c3ccccc3)cc2)n1
11
CN1CCC(N(Cc2ccc(-c3ccc(C(F)(F)F)cc3)nc2)C(=O)Cn2c(CCc3cccc(F)c3F)cc(=O)c3ccccc32)CC1
85

Read the next record carefully.
Prompt: Reported growth inhibition, compound "CCNc1cc(C(=O)N[C@@H](Cc2ccccc2)[C@H](O)CNCCC(C)(C)C)c(F)c(N2CCCCS2(=O)=O)c1" : ____
Completion: 93

###

target: L-lactate dehydrogenase (Plasmodium falciparum (isolate CDC / Honduras)) (UniProt Q27743); test: PfLDH activity inhibition – cell lysate, 3D7 strain, counter-screen for P. falciparum growth inhibition project (AID 2304);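 further: 0% = vehicle and 100% = reference inhibitor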; settings: P. falciparum 3D7 crude extract, LDH APAD/NBT absorbance; at 2 µM; stronger effect = higher value
Sequence (Q27743 whole entry, looked up): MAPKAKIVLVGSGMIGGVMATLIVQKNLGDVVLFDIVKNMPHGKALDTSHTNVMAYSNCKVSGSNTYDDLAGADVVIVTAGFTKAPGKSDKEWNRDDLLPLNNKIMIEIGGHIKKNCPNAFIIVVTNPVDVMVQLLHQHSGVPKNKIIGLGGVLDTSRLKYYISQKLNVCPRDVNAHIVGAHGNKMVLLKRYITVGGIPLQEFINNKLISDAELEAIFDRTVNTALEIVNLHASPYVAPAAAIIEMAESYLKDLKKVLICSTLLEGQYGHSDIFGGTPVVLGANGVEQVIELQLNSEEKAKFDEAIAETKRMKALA
Calls of active or inactive are those of the source. How the calls were made is not given here.
measured.attribute: inhibition

Example compounds with recorded inhibition:
CCCN1CCC(c2c[nH]c3ccc(NC(=O)Nc4cccc(Cl)c4Cl)cc23)CC1
2% (inactive)
COc1ccc2ccccc2c1CCCCN1CCN(CC(c2ccc(F)cc2)N2CCN(C(C)C)CC2)CC1 (stereo unspecified)
2% (inactive)
CCN(CC)CCCNCc1ccc(-c2ccc(C(F)(F)F)cc2)cc1
-4% (inactive)
COc1ccccc1C1CC(c2ccc(Br)cc2)=NN1C(=O)c1ccccc1 (stereo unspecified)
-6% (inactive)
CN1CCC(Oc2ccc(CN3CC[C@H](NC(=O)c4ccc(F)c(F)c4)C3)c3ccccc23)C1 (stereo partly specified)
2% (inactive)

We now examine a further compound.
Prompt: Would you kindly share the measured inhibition for "CC(=O)Nc1ccc(OCCN(Cc2ccccc2C(F)(F)F)c2ccc(C#N)c(C(F)(F)F)c2)c(Cl)c1" ?
Completion: -3% (inactive)

###

experiment: antimalarial activity against Dd2 strain (AID 2302);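 further: 0% = DMSO untreated growth and 100% = chloroquine plus artemisinin killed control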; settings: P. falciparum Dd2 in RBCs, LDH growth readout, 72 h; at 2 µM; stronger effect = higher value
Please mark Criterion met if the recorded growth inhibition is equal to or greater than 80%, and Criterion not met if it falls below.

CCCCCCCCCCN1C(=O)C2C(CCCCNC(C)=O)NC3(C(=O)N(Cc4ccc(C(C)(C)C)cc4)c4ccccc43)C2C1=O (stereo not drawn)
Criterion not met
Cc1noc(C)c1-c1cccc(CNCc2ccc(-c3ccc(-c4nc5ccc(C(F)(F)F)cc5[nH]4)cc3)cc2)c1
Criterion met
CO/C(=C\C=C\c1cc2cc(Cl)c(Cl)cc2[nH]1)C(=O)NCCCN1CCN(c2cccc(Cl)c2)CC1
Criterion not met
CCCNC(=O)C1CCN(C(c2ccccc2)c2ccc(Cl)c(Cl)c2)CC1 (stereo not drawn)
Criterion met
Cc1cc(NCCc2ccccc2)nc(/N=C(\N)Nc2cccc([N+](=O)[O-])c2)n1
Criterion met

Prompt: # check: growth inhibition of CC(Cc1ccc(NC(=O)c2ccc(CNCCCCc3ccccc3)cc2)cc1)NCCc1cccc(Cl)c1 (stereo not drawn) is greater than or equal to 80%
Completion: Criterion met

Prompt: Could you tell me if the measured growth inhibition of "FC(F)(F)c1ccc2nc(-c3ccc(-c4ccc(CNCc5ccccc5)cc4)cc3)[nH]c2c1" reaches 80% or more?
Completion: Criterion met

Prompt: Does the reported growth inhibition for Cc1cc(C2NC(=O)c3ccccc3N2)c(C)n1-c1ccc2c(c1)OCO2 (stereo not drawn) fall at or above the 80% mark?
Completion: Criterion met

Prompt: Does "Cc1cc(Nc2ccc(Cl)c(Cl)c2)n2nc(C)nc2n1" have a reported growth inhibition of at least 80%?
Completion: Criterion met

Prompt: Answer whether growth inhibition of "O=C(/C=C/c1ccc(Cl)c(Cl)c1)NCCCCCN1CCC(NC(=O)Nc2ccc(Br)cc2)CC1" is greater than or equal to 80%.
Completion: Criterion not met

Prompt: Test whether the molecule "CN(C)c1ccc(-c2ccc(C(=O)NC3CCN(Cc4ccc5c(c4)OCCO5)CC3)s2)cc1" records growth inhibition of 80% or higher.
Completion: Criterion not met

Prompt: Does the reported growth inhibition for "CN1CCC(c2ccc(NC(=O)c3ccc(-c4cccc(C(F)(F)F)c4)o3)cc2)CC1" fall at or above the 80% mark?
Completion: Criterion not met

Prompt: Reported growth inhibition at or above 80%? O=S1C(Cl)=C(c2ccc(Cl)cc2)c2ccc(Cl)cc21 (stereo not drawn)
Completion: Criterion met

Prompt: Tell me whether growth inhibition is at least 80% here: "COc1ccc2nccc([C@@H](O)CN3CCC(NC(=O)/C(=C/c4ccccc4)c4ccc(-c5ccccc5)cc4)CC3)c2c1"
Completion: Criterion not met

Prompt: Please indicate if the recorded growth inhibition for "c1cc(-c2ccc(CNCc3ccc(-c4csnn4)cc3)cc2)cc(-c2nc3ccccc3[nH]2)c1" meets or exceeds 80%.
Completion: Criterion met

Prompt: hey, is growth inhibition for this one >= 80%? "CC(C)(CNCc1cc(Cl)cc(Cl)c1)c1nc(-c2ccc(Cl)c(O)c2)c(-c2ccnc(N)n2)[nH]1"
Completion: Criterion not met
